Reported EC50 values for a set of molecules
# Experimental Target: 5'-AMP-activated protein kinase catalytic subunit alpha-2 (Homo sapiens, UniProt P54646)
# Sequence (P54646 whole entry): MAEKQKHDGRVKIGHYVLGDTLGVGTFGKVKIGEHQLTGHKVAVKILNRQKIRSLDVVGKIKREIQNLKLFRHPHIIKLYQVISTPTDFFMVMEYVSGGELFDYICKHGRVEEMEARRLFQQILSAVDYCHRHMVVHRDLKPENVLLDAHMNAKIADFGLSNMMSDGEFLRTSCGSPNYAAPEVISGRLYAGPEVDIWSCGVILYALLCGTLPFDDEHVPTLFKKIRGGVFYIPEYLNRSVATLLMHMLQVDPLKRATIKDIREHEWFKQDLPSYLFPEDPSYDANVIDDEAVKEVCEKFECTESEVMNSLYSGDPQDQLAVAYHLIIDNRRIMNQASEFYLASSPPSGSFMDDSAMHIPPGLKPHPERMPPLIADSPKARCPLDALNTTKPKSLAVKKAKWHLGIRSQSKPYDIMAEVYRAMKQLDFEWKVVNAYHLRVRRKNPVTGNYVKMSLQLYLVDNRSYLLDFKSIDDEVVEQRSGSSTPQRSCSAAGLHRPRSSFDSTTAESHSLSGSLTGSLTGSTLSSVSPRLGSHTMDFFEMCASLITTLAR
# Assay Comment: enzyme-linked immunosorbent assay

O=C(Nc1ccccc1-c1ccccc1)c1ccc(C(=O)N2CCN(Cc3ccc(F)cc3)CC2)cn1    > 1000 nM

Task: Provide value of EC50 for this record tested with 5'-AMP-activated protein kinase catalytic subunit alpha-2 (Homo sapiens, UniProt P54646): O=C(Nc1ccc(-c2ccc([N+](=O)[O-])cc2)cc1)c1ccc(C(=O)N2CCN(Cc3ccc(F)cc3)CC2)cn1
Result: > 1000 nM

Reference for the values: BindingDB's records for patent US10377742
